Provenance of the data: paper PMC9230201

Each entry below carries its reported log10 Amount excreted in urine, 0- 3 h.
- Test Description: Urinary excretion of phenolic metabolites after intake of the GCPE nutraceutical
- Settings: week 8, interval 0–3 h
Measure: log10 Amount excreted in urine, 0- 3 h (log10 of the value in µmol)

[
  {
    "Compound": "O=C(O)CCc1ccc(O)c(OS(=O)(=O)O)c1 [DHCA-3′-sulfate]",
    "log10 Amount excreted in urine, 0- 3 h": -0.15
  },
  {
    "Compound": "O=C(O)/C=C/c1ccc(O)c(OS(=O)(=O)O)c1 [CA-3′-sulfate, 4′Hydroxycinnamic acid-3′-sulfate]",
    "log10 Amount excreted in urine, 0- 3 h": 0.08
  },
  {
    "Compound": "COc1cc(CCC(=O)O)ccc1O",
    "log10 Amount excreted in urine, 0- 3 h": -1.10
  },
  {
    "Compound": "COc1cc(CCC(=O)OC2CC(O)(C(=O)O)CC(O)C2O)ccc1O (stereo not shown) [3-Dihydroferuloylquinic acid]",
    "log10 Amount excreted in urine, 0- 3 h": -0.96
  },
  {
    "Compound": "COc1ccc(CCC(=O)O)cc1OS(=O)(=O)O [DHiFA-3′-sulfate]",
    "log10 Amount excreted in urine, 0- 3 h": -0.85
  },
  {
    "Compound": "O=C(/C=C/c1ccc(O)c(O)c1)O[C@@H]1C[C@](O)(C(=O)O)C[C@@H](O)[C@H]1O",
    "log10 Amount excreted in urine, 0- 3 h": -1.00
  },
  {
    "Compound": "COc1cc(CCC(=O)O)ccc1O[C@@H]1O[C@H](C(=O)O)[C@@H](O)[C@H](O)[C@H]1O [DHFA-4′-glucuronide]",
    "log10 Amount excreted in urine, 0- 3 h": -0.68
  },
  {
    "Compound": "O=C(O)CCc1ccc(O)cc1 [DHCoA, 3-(4′-Hydroxyphenyl)propanoic acid]",
    "log10 Amount excreted in urine, 0- 3 h": -0.40
  },
  {
    "Compound": "O=C(O)CNC(=O)c1cccc(O)c1 [3′-Hydroxyhippuric acid]",
    "log10 Amount excreted in urine, 0- 3 h": 0.60
  },
  {
    "Compound": "COc1ccc(C=CC(=O)O)cc1O[C@@H]1O[C@H](C(=O)O)[C@@H](O)[C@H](O)[C@H]1O [iFA-3′-glucuronide, 4′-Methoxycinnamic acid-3′-glucuronide]",
    "log10 Amount excreted in urine, 0- 3 h": 0.15
  },
  {
    "Compound": "COc1ccc(/C=C/C(=O)NCC(=O)O)cc1O",
    "log10 Amount excreted in urine, 0- 3 h": -0.89
  },
  {
    "Compound": "COc1cc(/C=C/C(=O)NCC(=O)O)ccc1O",
    "log10 Amount excreted in urine, 0- 3 h": 0.00
  },
  {
    "Compound": "COc1ccc(/C=C/C(=O)O)cc1O [iFA, 3′-Hydroxy-4′-methoxycinnamic acid]",
    "log10 Amount excreted in urine, 0- 3 h": 0.08
  },
  {
    "Compound": "O=C(O)c1ccc(O)c(O)c1 [3,4-Dihydroxybenzoic acid]",
    "log10 Amount excreted in urine, 0- 3 h": -1.52
  },
  {
    "Compound": "O=C(O)CCc1ccc(O[C@@H]2O[C@H](C(=O)O)[C@@H](O)[C@H](O)[C@H]2O)cc1 [DHCoA-4′-glucuronide, 3-(Phenyl)propanoic acid-4′-glucuronide]",
    "log10 Amount excreted in urine, 0- 3 h": -0.64
  },
  {
    "Compound": "O=C(O)CCc1ccc(OS(=O)(=O)O)cc1 [DHCoA-4′-sulfate, 3-(Phenyl)propanoic acid-4′-sulfate]",
    "log10 Amount excreted in urine, 0- 3 h": 0.30
  }
]
